Recorded inhibition at 10 µM, one value per entry.
Measurement Target: KIT autoinhibited (Homo sapiens)
Construct: purchased Eurofins DiscoverX Corporation
Sequence (P10721 544-976 limits assumed): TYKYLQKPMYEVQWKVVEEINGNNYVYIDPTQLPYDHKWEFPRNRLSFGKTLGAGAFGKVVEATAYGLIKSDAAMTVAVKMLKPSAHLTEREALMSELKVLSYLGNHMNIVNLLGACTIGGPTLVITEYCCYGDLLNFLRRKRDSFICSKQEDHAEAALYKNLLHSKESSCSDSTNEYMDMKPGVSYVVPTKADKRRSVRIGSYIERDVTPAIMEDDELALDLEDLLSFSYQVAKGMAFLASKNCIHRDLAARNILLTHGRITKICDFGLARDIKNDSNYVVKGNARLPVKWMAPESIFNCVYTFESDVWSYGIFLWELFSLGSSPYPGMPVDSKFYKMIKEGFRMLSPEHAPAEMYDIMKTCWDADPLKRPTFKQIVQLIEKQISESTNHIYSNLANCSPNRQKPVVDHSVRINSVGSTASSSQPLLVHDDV
Test Name: KINOMEscan competition binding screen, KIT autoinhibited
Respond with the bare value in %.

Solved cases (2 shown):
Chem Smiles: Cc1cccc(-c2cc3nccc(Nc4ccccc4)c3s2)c1
Units: %
Experimental Result: 31
//
Chem Smiles: Cc1cccc(-c2cc3nccc(Nc4cccc(O)c4)c3s2)c1
Units: %
Experimental Result: 44

Challenge: Please tell me: inhibition at 10 µM of Cc1cccc(-c2cc3nccc(N4CCOCC4)c3s2)c1 , system KIT autoinhibited (Homo sapiens)?
Response given: 48

Challenge: What about COc1cccc(Nc2ccnc3cc(-c4cccc(C)c4)sc23)c1 ?
Response given: 78

* * *

Property: remaining binding at 10 µM; scope: individual compounds
Measurement Target: FYN (Homo sapiens, UniProt P06241)
Construct: purchased Eurofins DiscoverX Corporation
Sequence (P06241 whole entry): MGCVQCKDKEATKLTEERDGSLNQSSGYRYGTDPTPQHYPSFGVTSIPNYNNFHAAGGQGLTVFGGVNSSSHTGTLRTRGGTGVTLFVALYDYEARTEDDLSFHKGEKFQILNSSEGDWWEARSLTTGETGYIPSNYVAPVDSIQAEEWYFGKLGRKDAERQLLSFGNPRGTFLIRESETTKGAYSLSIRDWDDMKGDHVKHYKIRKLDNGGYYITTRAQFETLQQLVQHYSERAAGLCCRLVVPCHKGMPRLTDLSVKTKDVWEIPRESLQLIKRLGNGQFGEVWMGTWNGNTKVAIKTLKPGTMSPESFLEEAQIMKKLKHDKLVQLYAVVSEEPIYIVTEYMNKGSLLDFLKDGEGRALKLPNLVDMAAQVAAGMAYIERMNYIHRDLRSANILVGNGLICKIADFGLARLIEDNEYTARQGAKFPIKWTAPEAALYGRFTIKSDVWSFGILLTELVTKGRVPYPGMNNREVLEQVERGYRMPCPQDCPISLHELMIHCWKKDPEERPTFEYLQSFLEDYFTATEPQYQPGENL
Test Name: KINOMEscan competition binding screen, FYN
Run Conditions: read-out: % Ctrl @ 10 μM
Entry rule: numbers only, all in %.

Use these answered entries as a reference point.
Chem Smiles: Cc1cccc(-c2cc3nccc(N4CCOCC4)c3s2)c1
Units: %
Experimental Result: 56
--
Chem Smiles: Cc1cccc(-c2cc3nccc(Nc4cccc(O)c4)c3s2)c1
Units: %
Experimental Result: 0
--
Chem Smiles: COc1cccc(Nc2ccnc3cc(-c4cccc(C)c4)sc23)c1
Units: %
Experimental Result: 2.4

For the next question, use this compound.
Challenge: Given the entry Cc1cccc(-c2cc3nccc(Nc4ccccc4)c3s2)c1 , report its measured remaining binding at 10 µM.
Response given: 10

* * *

Measurement Target: SRC (Homo sapiens, UniProt P12931)
Construct: purchased Eurofins DiscoverX Corporation
Sequence (P12931 whole entry): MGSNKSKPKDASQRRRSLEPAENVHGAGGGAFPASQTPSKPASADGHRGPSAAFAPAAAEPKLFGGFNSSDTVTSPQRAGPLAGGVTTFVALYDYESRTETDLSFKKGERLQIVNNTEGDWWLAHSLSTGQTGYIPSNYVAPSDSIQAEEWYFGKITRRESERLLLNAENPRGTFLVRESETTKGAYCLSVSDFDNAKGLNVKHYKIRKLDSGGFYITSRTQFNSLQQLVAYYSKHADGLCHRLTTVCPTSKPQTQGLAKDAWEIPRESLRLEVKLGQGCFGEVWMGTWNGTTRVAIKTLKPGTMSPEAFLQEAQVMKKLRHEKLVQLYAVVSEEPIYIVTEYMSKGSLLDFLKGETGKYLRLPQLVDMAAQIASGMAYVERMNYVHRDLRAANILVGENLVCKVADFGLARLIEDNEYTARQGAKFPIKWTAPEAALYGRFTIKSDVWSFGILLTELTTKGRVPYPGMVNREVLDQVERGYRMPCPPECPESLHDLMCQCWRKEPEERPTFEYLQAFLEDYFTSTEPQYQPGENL
Test Name: KINOMEscan competition binding screen, SRC
Run Conditions: read-out: % Ctrl @ 10 μM
Assay Metric: remaining binding at 10 µM (%)
# output: bare number, implied unit %

Example entries and their recorded answers appear below.
Chem Smiles: Cc1cccc(-c2cc3nccc(Nc4ccccc4)c3s2)c1
Experimental Result: 5.3

Chem Smiles: Cc1cccc(-c2cc3nccc(N4CCOCC4)c3s2)c1
Experimental Result: 81

Chem Smiles: COc1cccc(Nc2ccnc3cc(-c4cccc(C)c4)sc23)c1
Experimental Result: 0.35

Turning now to a further molecule:
Challenge: Query (molecule): Cc1cccc(-c2cc3nccc(Nc4cccc(O)c4)c3s2)c1 ; field requested: remaining binding at 10 µM
Response given: 0.1

* * *

Item-by-item account of remaining binding at 10 µM
Measurement Target: KIT (V559D) (Homo sapiens, UniProt P10721, V559D)
Construct: purchased Eurofins DiscoverX Corporation
Sequence (P10721 26-976 V559D): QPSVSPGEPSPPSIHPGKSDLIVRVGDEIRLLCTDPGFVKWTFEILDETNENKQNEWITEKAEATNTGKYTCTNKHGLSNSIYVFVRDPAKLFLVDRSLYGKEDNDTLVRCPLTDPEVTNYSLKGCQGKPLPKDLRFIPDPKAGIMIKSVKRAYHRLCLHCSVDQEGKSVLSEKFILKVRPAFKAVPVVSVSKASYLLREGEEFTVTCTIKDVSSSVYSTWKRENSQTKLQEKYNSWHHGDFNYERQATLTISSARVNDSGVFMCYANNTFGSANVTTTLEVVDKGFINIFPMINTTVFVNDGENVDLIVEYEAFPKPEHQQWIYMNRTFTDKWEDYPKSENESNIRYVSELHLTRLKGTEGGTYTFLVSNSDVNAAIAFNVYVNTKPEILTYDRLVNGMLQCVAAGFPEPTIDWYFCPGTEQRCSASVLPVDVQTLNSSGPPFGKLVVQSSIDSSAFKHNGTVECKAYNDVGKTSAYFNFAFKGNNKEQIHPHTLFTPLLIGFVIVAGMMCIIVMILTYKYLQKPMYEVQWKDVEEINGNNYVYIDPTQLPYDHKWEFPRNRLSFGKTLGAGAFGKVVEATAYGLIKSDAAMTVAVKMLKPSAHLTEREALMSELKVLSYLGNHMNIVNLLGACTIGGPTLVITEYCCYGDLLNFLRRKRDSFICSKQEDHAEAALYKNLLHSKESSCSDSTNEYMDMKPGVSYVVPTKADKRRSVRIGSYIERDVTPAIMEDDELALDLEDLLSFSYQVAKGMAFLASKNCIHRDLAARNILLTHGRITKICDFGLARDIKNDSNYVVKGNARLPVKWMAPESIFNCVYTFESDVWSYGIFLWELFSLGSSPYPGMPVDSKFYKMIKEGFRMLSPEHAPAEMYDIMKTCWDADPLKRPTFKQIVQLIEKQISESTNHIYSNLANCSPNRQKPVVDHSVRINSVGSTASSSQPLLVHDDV
Test Name: KINOMEscan competition binding screen, KIT (V559D)
Run Conditions: read-out: % Ctrl @ 10 μM
Number first, unit second: that is the form wanted.

Solved cases below.
Chem Smiles: Cc1cccc(-c2cc3nccc(Nc4ccccc4)c3s2)c1
Measurement Target: KIT (V559D) (Homo sapiens, UniProt P10721, V559D)
remaining binding at 10 µM: 0.25%
--
Chem Smiles: Cc1cccc(-c2cc3nccc(N4CCOCC4)c3s2)c1
Measurement Target: KIT (V559D) (Homo sapiens, UniProt P10721, V559D)
remaining binding at 10 µM: 0.35%
--
Chem Smiles: Cc1cccc(-c2cc3nccc(Nc4cccc(O)c4)c3s2)c1
Measurement Target: KIT (V559D) (Homo sapiens, UniProt P10721, V559D)
remaining binding at 10 µM: 0%

Field: next molecule
Challenge: Consider the molecule COc1cccc(Nc2ccnc3cc(-c4cccc(C)c4)sc23)c1 and give its measured remaining binding at 10 µM.
Response given: 0.2%

* * *

inhibition at 10 µM listing for selected molecules.
Measurement Target: SRC (Homo sapiens)
Construct: purchased Eurofins DiscoverX Corporation
Test Name: KINOMEscan competition binding screen, SRC
Description: The KINOMEscan™ screening platform (Eurofins DiscoverX Corporation, San Diego, USA) was performed using an active site-directed competition binding assay to quantitatively measure interactions between BK40143, BK40197, BK40195, and BK40196 and more than 450 human kinases and disease relevant mutant variants. […]
The reply should be a number in %, with the unit left off.

Challenge: inhibition at 10 µM lookup needed for Cc1cccc(-c2cc3nccc(N4CCOCC4)c3s2)c1 , thanks.
Response given: 19

Challenge: And Cc1cccc(-c2cc3nccc(Nc4ccccc4)c3s2)c1 ?
Response given: 94.7

Challenge: And for COc1cccc(Nc2ccnc3cc(-c4cccc(C)c4)sc23)c1 ?
Response given: 99.7

Challenge: Check Cc1cccc(-c2cc3nccc(Nc4cccc(O)c4)c3s2)c1 too.
Response given: 99.9

* * *

Measurement Target: KIT (Homo sapiens)
Construct: purchased Eurofins DiscoverX Corporation
Sequence (P10721 26-976): as the sequence (P10721 26-976 V559D) above, with D534V counted along it
Test Name: KINOMEscan competition binding screen, KIT
Run Conditions: lower = stronger binding, read-out: % Ctrl @ 10 μM
Assay Metric: remaining binding at 10 µM (%)
Response body: numeric value in %, unit text excluded.

Worked set:
Chem Smiles: Cc1cccc(-c2cc3nccc(Nc4ccccc4)c3s2)c1
Experimental Result: 0
//
Chem Smiles: Cc1cccc(-c2cc3nccc(N4CCOCC4)c3s2)c1
Experimental Result: 0.3
//
Chem Smiles: COc1cccc(Nc2ccnc3cc(-c4cccc(C)c4)sc23)c1
Experimental Result: 0

Challenge: // returns reported remaining binding at 10 µM for input Cc1cccc(-c2cc3nccc(Nc4cccc(O)c4)c3s2)c1
Response given: 0

* * *

Measurement Target: KIT (V559D, V654A) (Homo sapiens, UniProt P10721, V559D/V654A)
Construct: purchased Eurofins DiscoverX Corporation
Sequence (P10721 26-976 V559D/V654A): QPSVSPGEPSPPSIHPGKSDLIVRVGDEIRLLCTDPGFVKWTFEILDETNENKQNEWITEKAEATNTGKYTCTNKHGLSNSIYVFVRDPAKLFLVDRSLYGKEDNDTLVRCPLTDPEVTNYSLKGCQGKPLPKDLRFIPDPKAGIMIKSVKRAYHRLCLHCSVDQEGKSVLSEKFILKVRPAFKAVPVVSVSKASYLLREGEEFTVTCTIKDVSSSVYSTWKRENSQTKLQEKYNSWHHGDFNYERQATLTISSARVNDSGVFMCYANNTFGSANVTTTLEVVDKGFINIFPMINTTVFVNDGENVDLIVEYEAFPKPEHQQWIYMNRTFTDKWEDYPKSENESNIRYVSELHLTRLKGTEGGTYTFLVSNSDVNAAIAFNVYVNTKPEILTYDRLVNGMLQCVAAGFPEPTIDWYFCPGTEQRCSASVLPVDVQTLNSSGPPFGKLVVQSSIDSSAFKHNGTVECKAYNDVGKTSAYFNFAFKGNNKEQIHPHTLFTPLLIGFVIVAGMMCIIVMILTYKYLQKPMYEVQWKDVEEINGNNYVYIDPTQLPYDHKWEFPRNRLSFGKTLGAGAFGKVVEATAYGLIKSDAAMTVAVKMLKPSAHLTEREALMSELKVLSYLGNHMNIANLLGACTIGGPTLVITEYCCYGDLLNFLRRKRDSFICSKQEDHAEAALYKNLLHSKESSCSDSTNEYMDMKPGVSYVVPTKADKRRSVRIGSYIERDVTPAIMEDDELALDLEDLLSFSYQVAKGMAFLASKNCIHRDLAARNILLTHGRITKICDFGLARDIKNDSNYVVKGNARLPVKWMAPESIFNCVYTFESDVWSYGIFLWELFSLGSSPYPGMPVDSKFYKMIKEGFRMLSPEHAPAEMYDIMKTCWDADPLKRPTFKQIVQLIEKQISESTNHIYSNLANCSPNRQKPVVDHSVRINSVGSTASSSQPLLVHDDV
Test Name: KINOMEscan competition binding screen, KIT (V559D, V654A)
Reported values of inhibition at 10 µM for individual entries
The reply should consist of the numeric value with the unit placed after it.

Chem Smiles: COc1cccc(Nc2ccnc3cc(-c4cccc(C)c4)sc23)c1
Experimental Result: 97.5%
//
Chem Smiles: Cc1cccc(-c2cc3nccc(N4CCOCC4)c3s2)c1
Experimental Result: 79%
//
Chem Smiles: Cc1cccc(-c2cc3nccc(Nc4cccc(O)c4)c3s2)c1
Experimental Result: 98.7%

# ---- query compound ----
Challenge: # get_value(readout='inhibition at 10 µM', item= Cc1cccc(-c2cc3nccc(Nc4ccccc4)c3s2)c1 )
Response given: 82%

* * *

IC50, DDR2 (Homo sapiens, UniProt Q16832): measured values
Only the number, expressed in µM, is required.

Worked set:
Chem Smiles: Cc1cccc(-c2cc3nccc(Nc4cccc(O)c4)c3s2)c1
IC50 [µM]: 0.922

Chem Smiles: COc1cccc(Nc2ccnc3cc(-c4cccc(C)c4)sc23)c1
IC50 [µM]: 1.9

Challenge: For the molecule shown here, Cc1cccc(-c2cc3nccc(Nc4ccccc4)c3s2)c1 , give the reported IC50.
Response given: 6.03

* * *

Item-by-item account of inhibition at 10 µM
Measurement Target: KIT (V559D) (Homo sapiens, UniProt P10721, V559D)
Construct: purchased Eurofins DiscoverX Corporation
Test Name: KINOMEscan competition binding screen, KIT (V559D)
Answer format: numeric, % implied, no suffix.

Example entries and their recorded answers appear below.
Chem Smiles: Cc1cccc(-c2cc3nccc(N4CCOCC4)c3s2)c1
Experimental Result: 99.7
//
Chem Smiles: Cc1cccc(-c2cc3nccc(Nc4cccc(O)c4)c3s2)c1
Experimental Result: 100
//
Chem Smiles: Cc1cccc(-c2cc3nccc(Nc4ccccc4)c3s2)c1
Experimental Result: 99.8

Pending compound:
Challenge: # inhibition at 10 µM lookup, item COc1cccc(Nc2ccnc3cc(-c4cccc(C)c4)sc23)c1
Response given: 99.8

* * *

Quick reference: remaining binding at 10 µM of the listed items.
Measurement Target: KIT (V559D, T670I) (Homo sapiens, UniProt P10721, T670I/V559D)
Construct: purchased Eurofins DiscoverX Corporation
Sequence (P10721 26-976 V559D/T670I): as the sequence (P10721 26-976 V559D/V654A) above, with A629V, T645I counted along it
Test Name: KINOMEscan competition binding screen, KIT (V559D, T670I)
Run Conditions: read-out: % Ctrl @ 10 μM
Numbers only; they are read as %.

Chem Smiles: COc1cccc(Nc2ccnc3cc(-c4cccc(C)c4)sc23)c1
Assay Metric: remaining binding at 10 µM
Units: %
Experimental Result: 2.5

Challenge: Missing value: remaining binding at 10 µM, KIT (V559D, T670I) (Homo sapiens, UniProt P10721, T670I/V559D), entry Cc1cccc(-c2cc3nccc(Nc4cccc(O)c4)c3s2)c1 . Fill in?
Response given: 2.4

Challenge: And what about the molecule Cc1cccc(-c2cc3nccc(Nc4ccccc4)c3s2)c1 ?
Response given: 19

Challenge: Same read-out for Cc1cccc(-c2cc3nccc(N4CCOCC4)c3s2)c1 ?
Response given: 20

* * *

Measured remaining binding at 10 µM accompanies every entry in the list below.
Measurement Target: KIT (L576P) (Homo sapiens, UniProt P10721, L576P)
Construct: purchased Eurofins DiscoverX Corporation
Sequence (P10721 26-976 L576P): as the sequence (P10721 26-976 V559D) above, with D534V, L551P counted along it
Test Name: KINOMEscan competition binding screen, KIT (L576P)
Run Conditions: read-out: % Ctrl @ 10 μM
Value expressed in %; do not type the unit.

Chem Smiles: COc1cccc(Nc2ccnc3cc(-c4cccc(C)c4)sc23)c1
Units: %
Experimental Result: 8.1

Challenge: Endpoint output: remaining binding at 10 µM of Cc1cccc(-c2cc3nccc(Nc4ccccc4)c3s2)c1 . Value?
Response given: 3.5

Challenge: What do you have for Cc1cccc(-c2cc3nccc(N4CCOCC4)c3s2)c1 ?
Response given: 1.8

Challenge: Cc1cccc(-c2cc3nccc(Nc4cccc(O)c4)c3s2)c1 ?
Response given: 0.8
